Assignment: determine reported inhibition for the given compounds.
- PROTOCOL_DESCRIPTION: beta-lactam sensitization of Mtb H37Rv, H37Rv (AID 434955);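 note: growth measured after seven days incubation then overnight dye step; 0% = bacteria only wells and 100% = bacteria with antibiotic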
- STATED_CONDITIONS: M. tuberculosis H37Rv growth with meropenem, percent inhibition; measured here: primary screen without meropenem; at 25 µM
Hit rate of the full screen: of about 330,000 compounds, about 880 (0.27%) were called active. Another 1% or so got no clear call; they are omitted. These entries were drawn from the full list.
Respond numerically; units are % and should not be typed.

Record summary for `Cc1c(C)c(C)c(S(=O)(=O)N2CCC3(CC2)OCCO3)c(C)c1C` : reported inhibition = -3

Record summary for COc1cc(NC(=S)N2CCCC(C)C2)cc(OC)c1OC (stereo not given) : reported inhibition = 3.47

Record summary for CC(OC(=O)CN1C(=O)C2CCCCC2C1=O)C(=O)Nc1ncc(Cl)cc1Cl (stereo not given) : reported inhibition = 4.44

Record summary for `COc1ccc(S(=O)(=O)N2CCCCC2)cc1NC(=O)c1cc([N+](=O)[O-])ccc1N1CCOCC1` : reported inhibition = -3.23

Record summary for `CCc1ccc(-c2cc3c(=O)n(CC(=O)NCCCN4CCN(Cc5ccccc5)CC4)nc(C)n3n2)cc1` : reported inhibition = 99.5

----------
Assignment: determine reported inhibition for the given compounds.
- PROTOCOL_DESCRIPTION: beta-lactam sensitization of Mtb H37Rv, H37Rv (AID 434955);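 note: growth measured after seven days incubation then overnight dye step; 0% = bacteria only wells and 100% = bacteria with antibiotic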
- STATED_CONDITIONS: M. tuberculosis H37Rv growth with meropenem, percent inhibition; measured here: primary screen without meropenem; at 25 µM
Out of some 330,000 compounds screened, about 880 (0.27%) were called active. Not shown: some 1% with an inconclusive outcome. Only a sample is shown.
Respond numerically; units are % and should not be typed.

Record summary for `CC1=NCCN1S(=O)(=O)c1ccc(Br)c(C)c1` : reported inhibition = 10.8

Record summary for `O=C(NC(=S)N1CCN(Cc2ccccc2)CC1)c1ccccc1` : reported inhibition = -3.71

Record summary for `COC(=O)N/N=C/c1c[n+]([O-])c2ccccc2[n+]1[O-]` : reported inhibition = 100

Record summary for CC1Sc2ccc(C(=O)NCc3ccccc3Cl)cc2NC1=O (stereo unspecified) : reported inhibition = 2.96

Record summary for `Fc1ccc2c(c1)C(c1cccnc1)=NNC(c1cccs1)=N2` : reported inhibition = 4.96

Record summary for `CCOc1ccc(CNC(=O)CCC(=O)N2CCSc3ccccc32)cc1` : reported inhibition = -7.82

----------
Assignment: determine reported inhibition for the given compounds.
- PROTOCOL_DESCRIPTION: beta-lactam sensitization of Mtb H37Rv, H37Rv (AID 434955);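 note: growth measured after seven days incubation then overnight dye step; 0% = bacteria only wells and 100% = bacteria with antibiotic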
- STATED_CONDITIONS: M. tuberculosis H37Rv growth with meropenem, percent inhibition; measured here: primary screen without meropenem; at 25 µM
The campaign covered roughly 330,000 compounds. About 880 (0.27%) were called active. Not shown: some 1% with an inconclusive outcome. Not all results are given here.
Respond numerically; units are % and should not be typed.

Record summary for COc1ccccc1CN1CC(C(=O)NCCc2cn[nH]c2)CCC1=O (configuration not stated) : reported inhibition = 3.44

Record summary for `COc1ccccc1C(=O)N/C(=C/c1ccco1)C(=O)Nc1ccc(C(=O)O)cc1` : reported inhibition = 3.35

Record summary for `O=C1c2ccccc2C(=O)N1CCOc1ccc(F)cc1` : reported inhibition = -1.56

Record summary for `CCOC(=O)c1c(S(=O)(=O)Nc2ccc(CN3CCC(C)CC3)cc2)c(C)n(C)c1C` : reported inhibition = 3.26

Record summary for `COc1ccccc1NC(=O)COC(=O)CNC(=O)C1CCCCC1` : reported inhibition = -2.95

Record summary for `Cc1ccc(NC(=O)c2nc[nH]c2C(=O)N2CCCCC2)c(C(=O)c2ccccc2)c1` : reported inhibition = 12.6

Record summary for `Cc1oc2c(F)c(F)c(F)c(F)c2c1S(=O)(=O)Nc1cccc(C(F)(F)F)c1` : reported inhibition = 5.66

Record summary for `Cc1ccc(-c2csc(NC(=O)C3=COCCO3)n2)cc1C` : reported inhibition = 99.3

Record summary for `O=C(COC(=O)Cc1ccccc1F)NNC(=O)c1ccc(Cl)cc1` : reported inhibition = 20.8

Record summary for COc1ccc(NC2CCCN(C(=O)c3ccncc3)C2)cc1 (configuration not stated) : reported inhibition = 1.6

Record summary for `Cc1ccc(C(=O)N2CCN(S(=O)(=O)N3CCOCC3)CC2)cc1` : reported inhibition = -3.45

Record summary for `CCc1ccc2[nH]c(=O)c(Cc3ccccc3)c(O)c2c1` : reported inhibition = -2.95

Record summary for `CSc1ccccc1NC(=O)c1ccc2c(c1)CCN2S(C)(=O)=O` : reported inhibition = -0.34

Record summary for `CCOC(=O)C1CCN(C(=O)Cc2c(C(=O)O)[nH]c3ccccc23)CC1` : reported inhibition = 8.1

Record summary for `Cc1ccc(NS(=O)(=O)c2ccc(-c3coc(C)n3)cc2)c(C)c1` : reported inhibition = 3.59

Record summary for O=C(CSC1CC(=O)N(CCc2ccccc2)C1=O)Nc1ccc(Cl)cc1 (configuration not stated) : reported inhibition = -3.81

Record summary for `O=c1cc(CN2CCN(c3cccc(Cl)c3)CC2)c2cc3c(cc2o1)CCCC3` : reported inhibition = 1.9

Record summary for `O=C(NCCC1=CCCCC1)c1ccc(-n2cncn2)cc1` : reported inhibition = 10.8

Record summary for Fc1ccc(N2N=C(c3cccs3)CC2c2ccco2)c(F)c1 (configuration not stated) : reported inhibition = 9.4

Record summary for O=C(C1CCCN1S(=O)(=O)c1ccc(Br)cc1)N1CCOCC1 (configuration not stated) : reported inhibition = 0.94

Record summary for COc1ccccc1N(C(=O)Cn1nnc2ccccc21)C(C(=O)NCc1ccco1)c1ccc(C)o1 (configuration not stated) : reported inhibition = -5.41

Record summary for COCCOC(=O)C1=C(C)NC(=O)NC1c1cc2c(cc1Br)OCO2 (configuration not stated) : reported inhibition = 0.53

Record summary for `CCN(Cc1nc2ccccc2c(=O)[nH]1)Cc1cc(=O)oc2cc(C)c(C)cc12` : reported inhibition = -4.21

Record summary for CCC(C)NCC(=O)Nc1ccc([N+](=O)[O-])cc1C(=O)Nc1ccccc1F (configuration not stated) : reported inhibition = 3.29

Record summary for O=C(NCCc1ccccc1)C1CCC(Cn2c(=O)c3ccccc3n(Cc3cccnc3)c2=O)CC1 (configuration not stated) : reported inhibition = 2.41

Record summary for `Cc1ccc(C(=O)NN(CCC#N)C2=NS(=O)(=O)c3ccccc32)cc1` : reported inhibition = -4.15

Record summary for `COc1ccc(OC)c(NC(=O)c2cccc(S(=O)(=O)N3CCN(C(C)=O)CC3)c2)c1` : reported inhibition = 1.6

Record summary for `CC(C)Cc1ccc(S(=O)(=O)N2CCN(C(=O)c3ccco3)CC2)cc1` : reported inhibition = -4.13

Record summary for `CCSCc1nc(N)nc(NCCc2ccccc2)n1` : reported inhibition = 4.31

Record summary for `Cc1cccc([C@@H]2[C@@H]3C(=O)N(C)C(=O)[C@@H]3[C@@H]3C(=O)Nc4ccccc4C(=O)N23)c1` : reported inhibition = -0.42

Record summary for `O=C(Nc1ccc(F)cc1F)N1CCCN(CCOc2ccccc2)CC1` : reported inhibition = -0.11

Record summary for `CCCCNC(=O)Cn1nc(C)c(S(=O)(=O)N2CCOCC2)c1C` : reported inhibition = -4.6
